system: ATP; assay: switch fluorescence ratio, 500 uM ATP over buffer (Cy3 cluster intensity, sum of 5 cycles each) (fold (ratio)); higher = stronger signal-on switching upon ATP binding; sequences stand for … in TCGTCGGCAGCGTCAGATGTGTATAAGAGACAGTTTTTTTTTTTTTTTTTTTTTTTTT…TC; conditions: aptamer strand: ATP DNA aptamer (quencher-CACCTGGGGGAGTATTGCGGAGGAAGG + anchor), 100 nM annealed; ATP concentration: 500 uM;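 note: ATP exposure 15 min at 22 °C before imaging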
readout-kind: switch fluorescence ratio
Please respond with just the number, no unit label.

These solved cases illustrate the format of a correct answer.
ATAGGGGAAA | 0.987
GCATCAAGTG | 0.988
CTAATTTACG | 1.06
TTGGGGGCTC | 0.998
AGTAGAATCG | 0.992
AGCAAGGGGC | 1.02

// switch fluorescence ratio (ATP) for `GTAATTGTAA` = 0.984

// switch fluorescence ratio (ATP) for `GGATGGGGAG` = 0.971

====

test system: ATP; assay: switch fluorescence ratio, 500 uM ATP over buffer (Cy3 cluster intensity, sum of 5 cycles each) (fold (ratio)); higher = stronger signal-on switching upon ATP binding; sequences stand for … in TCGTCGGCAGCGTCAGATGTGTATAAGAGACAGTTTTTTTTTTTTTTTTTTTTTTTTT…TC; settings: aptamer strand: ATP DNA aptamer (quencher-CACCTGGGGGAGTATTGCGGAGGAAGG + anchor), 100 nM annealed; ATP concentration: 500 uM;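 note: ATP exposure 15 min at 22 °C before imaging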
readout-kind: switch fluorescence ratio
Please respond with just the number, no unit label.

AAGATCAATA | 0.997
CGATTTTGTA | 1.01
TATGGAATTT | 0.985
TATATATAAC | 1.01
GCCTTAGGGT | 1.01

Record summary for `GGTTTCATGG` : reported switch fluorescence ratio = 0.998

Record summary for `TCTATATGGG` : reported switch fluorescence ratio = 0.99

Record summary for `TTATAAGGG` : reported switch fluorescence ratio = 0.984

Record summary for `GATGCTTATG` : reported switch fluorescence ratio = 1.01

====

test system: ATP; assay: switch fluorescence ratio, 500 uM ATP over buffer (Cy3 cluster intensity, sum of 5 cycles each) (fold (ratio)); higher = stronger signal-on switching upon ATP binding; sequences stand for … in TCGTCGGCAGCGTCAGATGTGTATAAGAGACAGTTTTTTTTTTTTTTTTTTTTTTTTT…TC; settings: aptamer strand: ATP DNA aptamer (quencher-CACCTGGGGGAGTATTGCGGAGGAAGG + anchor), 100 nM annealed; ATP concentration: 500 uM;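 note: ATP exposure 15 min at 22 °C before imaging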
# maps each entry to its switch fluorescence ratio

AAGCATAGTT | 0.993
ACATTCATCG | 1.06
AAAAAAGTAG | 1.03

Record summary for `AAATAGGGGT` : reported switch fluorescence ratio = 1

Record summary for `TTTTCGGCTT` : reported switch fluorescence ratio = 0.965

====

system: ATP; assay: switch fluorescence ratio, 500 uM ATP over buffer (Cy3 cluster intensity, sum of 5 cycles each) (fold (ratio)); higher = stronger signal-on switching upon ATP binding; sequences stand for … in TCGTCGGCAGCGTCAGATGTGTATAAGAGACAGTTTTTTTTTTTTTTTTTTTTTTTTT…TC; conditions: aptamer strand: ATP DNA aptamer (quencher-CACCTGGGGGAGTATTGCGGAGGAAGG + anchor), 100 nM annealed; ATP concentration: 500 uM;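 note: ATP exposure 15 min at 22 °C before imaging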
readout-kind: switch fluorescence ratio
Please respond with just the number, no unit label.

These solved cases illustrate the format of a correct answer.
TAAGCTGCCA | 1.02
AGGGACGCGA | 1.26
GCTTCCCAGC | 1.19
AGTTGGGGGT | 0.998
GATTGCCGAT | 1
AGGCCGAGGA | 0.991
AGTTATCAGG | 1.06
TTTAAAATGG | 1

Record summary for `ATAAGTGTCT` : reported switch fluorescence ratio = 1.02

Record summary for `GTTGTGGATA` : reported switch fluorescence ratio = 0.97

Record summary for `TTTGGAAGGG` : reported switch fluorescence ratio = 1

Record summary for `AGGGTACCTG` : reported switch fluorescence ratio = 1.01

Record summary for `AATTGTAGTA` : reported switch fluorescence ratio = 0.996

Record summary for `CGCTGATTTG` : reported switch fluorescence ratio = 1

These data points were gathered from the supplement of paper PMC10126150.
